Assay: Cytotoxicity against human MT4 cells by MTT assay
Format: cell-based
Friendly reminder: CC50 below 100 µM is Condition met, at or above is Condition not met.

* O=C(CSc1nncnc1-c1cccc2ccccc12)Nc1ccccc1Cl | Condition met
* CCOC(=O)c1ccc(NC(=O)CSc2nncnc2-c2ccccc2Cl)c(Br)c1 | Condition met
* COC(=O)c1sccc1NC(=O)CSc1nncnc1-c1ccccc1Cl | Condition not met
* O=C(CSc1nncnc1-c1ccccc1Cl)Nc1ccccc1 | Condition not met
* O=C(CSc1nncnc1-c1cccc2ccccc12)Nc1ccc([N+](=O)[O-])cc1Cl | Condition not met
* CC(=O)c1ccc(NC(=O)CSc2nncnc2-c2cccc3ccccc23)c(Br)c1 | Condition not met

----------
selectivity ratio values for the compounds below.
Assay: Selectivity index, ratio of CC50 for human MT4 cells to EC50 for HIV1 RES056 harboring reverse transcriptase K103N/Y181C mutant
Format: toxicity, cell-based
Settings: read-out: Ratio CC50/EC50
MEASURE NAME: selectivity ratio

• Cc1ccc(NC(=O)CSc2nncnc2-c2cccc3ccccc23)c(Br)c1 = 4
• CC(C)Nc1cccnc1N1CCN(C(=O)c2cc3cc(NS(C)(=O)=O)ccc3[nH]2)CC1 [DELAVIRDINE] = < 1
• O=C(CSc1nncnc1-c1cccc2ccccc12)Nc1ccccc1Br = ≤ 2
• CC(=O)c1ccc(NC(=O)CSc2nncnc2-c2ccccc2Cl)c(Br)c1 = < 1
• Cc1ccccc1NC(=O)CSc1nncnc1-c1cccc2ccccc12 = < 1
• O=C(CSc1nncnc1-c1cccc2ccccc12)Nc1cccnc1Cl = 6
• O=C(CSc1nncnc1-c1ccccc1Cl)Nc1ccccc1 = < 1

----------
Experiment: Selectivity index, ratio of CC50 for human MT4 cells to EC50 for HIV1 RES056 harboring reverse transcriptase K103N/Y181C mutant
Type: toxicity, cell-based
Conditions: read-out: Ratio CC50/EC50
MEASURE NAME: selectivity ratio

• COC(=O)c1ccc(NC(=O)CSc2nncnc2-c2cccc3ccccc23)c(Br)c1 = 7
• O=C(CSc1nncnc1-c1ccccc1Cl)Nc1ccccn1 = < 1
• O=C(CSc1nncnc1-c1ccccc1Cl)Nc1ccccc1F = < 1
• O=C(CSc1nncnc1-c1ccccc1Cl)Nc1ccccc1Cl = ≤ 2
• Cc1ccc(NC(=O)CSc2nncnc2-c2cccc3ccccc23)c([N+](=O)[O-])c1 = 28
• CCOC(=O)c1ccc(NC(=O)CSc2nncnc2-c2cccc3ccccc23)c(Cl)c1 = < 1

----------
Test: Selectivity index, ratio of CC50 for human MT4 cells to EC50 for HIV2 ROD
Assay type: toxicity, cell-based
Conditions: read-out: Ratio CC50/EC50
selectivity ratio values for the molecules below.
MEASURE NAME: selectivity ratio

- O=C(CSc1nncnc1-c1cccc2ccccc12)Nc1ccccc1Cl: < 1
- Cc1ccccc1NC(=O)CSc1nncnc1-c1ccccc1Cl: < 1
- CCOC(=O)c1ccc(NC(=O)CSc2nncnc2-c2ccccc2Cl)c(Br)c1: < 1
- Cc1ccc(NC(=O)CSc2nncnc2-c2ccccc2Cl)c(Br)c1: < 1
- NS(=O)(=O)c1ccc(NC(=O)CSc2nncnc2-c2cccc3ccccc23)c(Br)c1: < 1
- Cc1cnc(NC(=O)CSc2nncnc2-c2ccccc2Cl)c(Br)c1: < 1
- O=C(CSc1nncnc1-c1cccc2ccccc12)Nc1ccccc1Br: < 1
- O=C(CSc1nncnc1-c1cccc2ccccc12)N1CCc2ccccc2C1: < 1
- O=C(CSc1nncnc1-c1ccccc1Cl)Nc1ccccn1: < 1
- COC(=O)c1ccc(NC(=O)CSc2nncnc2-c2ccccc2Cl)c(Br)c1: < 1
- CC(=O)c1ccc(NC(=O)CSc2nncnc2-c2ccccc2Cl)c(Br)c1: < 1

----------
Assay: Selectivity index, ratio of CC50 for human MT4 cells to EC50 for HIV1 RES056 harboring reverse transcriptase K103N/Y181C mutant
Format: toxicity, cell-based
Settings: read-out: Ratio CC50/EC50
selectivity ratio values for the compounds below.
MEASURE NAME: selectivity ratio

- CC(=O)c1ccc(NC(=O)CSc2nncnc2-c2cccc3ccccc23)c(Br)c1: 31
- NS(=O)(=O)c1ccc(NC(=O)CSc2nncnc2-c2cccc3ccccc23)c(Br)c1: 7

----------
EC50 values for the compounds below.
Tested on: Human immunodeficiency virus 1
Assay: Antiviral activity against HIV1 RES056 harboring reverse transcriptase K103N/Y181C mutant infected in human MT4 cells assessed as inhibition of virus-induced cytopathicity by MTT assay
Type: functional, organism-based
Settings: Human immunodeficiency virus 1, RES056, MT4
MEASURE NAME: EC50 (µM)

- NS(=O)(=O)c1ccc(NC(=O)CSc2nncnc2-c2cccc3ccccc23)c(Br)c1: 3.3
- Cc1ccc(NC(=O)CSc2nncnc2-c2cccc3ccccc23)c(Br)c1: 46

----------
Assay: Selectivity index, ratio of CC50 for human MT4 cells to EC50 for HIV1 RES056 harboring reverse transcriptase K103N/Y181C mutant
Type: toxicity, cell-based
Settings: read-out: Ratio CC50/EC50
MEASURE NAME: selectivity ratio

• O=C(CSc1nncnc1-c1ccccc1Cl)Nc1ccccc1[N+](=O)[O-] = ≤ 6
• CCOC(=O)c1ccc(NC(=O)CSc2nncnc2-c2ccccc2Cl)c(Br)c1 = < 1
• Cc1ccc(NC(=O)CSc2nncnc2-c2ccccc2Cl)c([N+](=O)[O-])c1 = ≤ 1
• O=C(CSc1nncnc1-c1ccccc1Cl)Nc1cccnc1Cl = 7
• O=C(CSc1nncnc1-c1cccc2ccccc12)Nc1ccccc1 = < 1
• COC(=O)c1ccc(NC(=O)CSc2nncnc2-c2ccccc2Cl)c(Br)c1 = < 1
• O=C(CSc1nncnc1-c1ccccc1Cl)N1CCc2ccccc2C1 = < 1
• CCOC(=O)c1ccc(NC(=O)CSc2nncnc2-c2cccc3ccccc23)c(Br)c1 = < 1
• O=C(CSc1nncnc1-c1ccccc1Cl)Nc1ccccc1Br = ≤ 1
• O=C(CSc1nncnc1-c1cccc2ccccc12)Nc1ccccc1[N+](=O)[O-] = 25

----------
Experiment: Cytotoxicity against human MT4 cells by MTT assay
Format: cell-based
MEASURE NAME: CC50 (µM)

- O=C(CSc1nncnc1-c1ccccc1Cl)Nc1ccccc1[N+](=O)[O-]: 63
- Cc1ccc(NC(=O)CSc2nncnc2-c2ccccc2Cl)c([N+](=O)[O-])c1: 158
- CC(=O)c1ccc(NC(=O)CSc2nncnc2-c2ccccc2Cl)c(Br)c1: 34
- O=C(CSc1nncnc1-c1cccc2ccccc12)Nc1cccnc1Cl: 44
- Cc1ccc2sc(NC(=O)CSc3nncnc3-c3ccccc3Cl)nc2c1: 137
- COC(=O)c1ccc(NC(=O)CSc2nncnc2-c2ccccc2Cl)c(Br)c1: 59
- O=C(CSc1nncnc1-c1cccc2ccccc12)N1CCc2ccccc2C1: 13
- O=C(CSc1nncnc1-c1cccc2ccccc12)Nc1ccccc1: 154
- O=C(CSc1nncnc1-c1ccccc1Cl)Nc1ccc(Cl)cc1Cl: 51
- O=C(CSc1nncnc1-c1ccccc1Cl)Nc1ccccc1Br: 73
- CCOC(=O)c1ccc(NC(=O)CSc2nncnc2-c2cccc3ccccc23)c(Br)c1: 105
- O=C(CSc1nncnc1-c1cccc2ccccc12)Nc1ccccc1Br: 87
- Cc1ccc(NC(=O)CSc2nncnc2-c2ccccc2Cl)c(Br)c1: 45
- O=C(CSc1nncnc1-c1ccccc1Cl)Nc1ccccn1: 172
- O=C(CSc1nncnc1-c1ccccc1Cl)Nc1cccnc1Cl: 167
- Cc1ccc(NC(=O)CSc2nncnc2-c2cccc3ccccc23)c([N+](=O)[O-])c1: 147
- O=C(CSc1nncnc1-c1cccc2ccccc12)Nc1ccc(Cl)cc1Cl: 254
- CCOC(=O)c1ccc(NC(=O)CSc2nncnc2-c2cccc3ccccc23)c(Cl)c1: 150
- NS(=O)(=O)c1ccc(NC(=O)CSc2nncnc2-c2cccc3ccccc23)c(Br)c1: 23
- O=C(CSc1nncnc1-c1cccc2ccccc12)Nc1ccccc1[N+](=O)[O-]: 142

----------
Test system: Human immunodeficiency virus 1
Assay: Antiviral activity against HIV1 RES056 harboring reverse transcriptase K103N/Y181C mutant infected in human MT4 cells assessed as inhibition of virus-induced cytopathicity by MTT assay
Type: functional, organism-based
Settings: Human immunodeficiency virus 1, RES056, MT4
EC50 values for the compounds below.
MEASURE NAME: EC50

- O=C(CSc1nncnc1-c1cccc2ccccc12)Nc1ccccc1: > 154 µM
- Cc1ccc(NC(=O)CSc2nncnc2-c2ccccc2Cl)c([N+](=O)[O-])c1: ≥ 22 µM
- O=C(CSc1nncnc1-c1ccccc1Cl)Nc1ccccc1Br: ≥ 55 µM
- COC(=O)c1ccc(NC(=O)CSc2nncnc2-c2cccc3ccccc23)c(Br)c1: 25 µM
- O=C(CSc1nncnc1-c1cccc2ccccc12)Nc1cccnc1Cl: 7 µM
- O=C(CSc1nncnc1-c1cccc2ccccc12)Nc1ccccc1Cl: > 63 µM
- O=C(CSc1nncnc1-c1ccccc1Cl)Nc1ccccc1F: > 98 µM
- CC(C)Nc1cccnc1N1CCN(C(=O)c2cc3cc(NS(C)(=O)=O)ccc3[nH]2)CC1 [DELAVIRDINE]: > 36 µM

----------
Assay: Selectivity index, ratio of CC50 for human MT4 cells to EC50 for HIV1 3B
Format: toxicity, cell-based
Details: read-out: Ratio CC50/EC50
selectivity ratio values for the compounds below.
MEASURE NAME: selectivity ratio

• Cc1cnc(NC(=O)CSc2nncnc2-c2ccccc2Cl)c(Br)c1 = < 1
• O=C(CSc1nncnc1-c1ccccc1Cl)N1CCCc2ccccc21 = < 1
• O=C(CSc1nncnc1-c1ccccc1Cl)N1CCc2ccccc2C1 = ≥ 52
• O=C(CSc1nncnc1-c1ccccc1Cl)c1ccc(Br)cc1Br = < 1
